Values from PubChem BioAssay (EPA / NIEHS)

PROTOCOL DETAILS: ATG_TGFb_CIS: Attagene CIS-FACTORIAL HepG2 Assay for human Transforming Growth Factor (TGF) (AID 2282967)
CONDITION DETAILS: HepG2 Attagene CIS TGFb reporter, mRNA transcription; actives raise or lower the signal
Activity calls are given as the source filed them. The calls were made as follows: active = hit-call score of the fitted dose curve at least 0.9, where 1 is the maximum; inactive = score below 0.9.
Could you please pick one outcome from this set? active, inactive

# count of solved cases: 5
>  <MOLECULE>
CC=CCO

>  <ASSIGNED LABEL>
inactive

$$$$
>  <MOLECULE>
COC(=O)c1cc(Cl)ccc1[N+](=O)[O-]

>  <ASSIGNED LABEL>
inactive

$$$$
>  <MOLECULE>
Nc1ccc(-c2ccc(F)cc2)cc1

>  <ASSIGNED LABEL>
inactive

$$$$
>  <MOLECULE>
CCCCCCCCCCCCCCCC(=O)OCC

>  <ASSIGNED LABEL>
inactive

$$$$
>  <MOLECULE>
Clc1nc2ccccc2s1

>  <ASSIGNED LABEL>
inactive

$$$$

Q. Query: recorded result category for C=C(C)[C@@H]1CCC2=CCC[C@@H](C)[C@]2(C)C1 in this test
A. inactive

Q. Test call for this molecule, please: O=C(Nc1ccccc1)c1ccccc1O
A. inactive

Q. Given O=C(O)CCCC[C@@H]1SC[C@@H]2NC(=O)N[C@@H]21 , state the outcome it received in this test.
A. inactive

Q. Just curious, what result did C[Si](C)O[Si](C)(C)O[Si](C)(C)O[Si](C)C get here?
A. inactive

Q. # lookup: test call for CN(C)c1ccc(N=Nc2ccccc2C(=O)O)cc1
A. inactive

Q. Could you check what this test reported for CCC(CO)CO ?
A. inactive

Q. Given CC(C)(c1cc(Br)c(OCCO)c(Br)c1)c1cc(Br)c(OCCO)c(Br)c1 , state the outcome it received in this test.
A. inactive

Q. Test call for this molecule, please: Cc1ccc(C(C)c2ccc(C)c(C)c2)cc1C
A. inactive

Q. I would be grateful if you could indicate the recorded call for COC(=O)c1ccccc1OC .
A. inactive

Q. I'd appreciate the recorded outcome for Cc1cc(C)c(C)c(C)c1 from this test.
A. inactive

Q. Hi, sorry to bother you, what did the test record for O=C1CCC(=O)N1Cl ?
A. inactive

Q. // return assay outcome for Cc1cccc(OCCOc2cccc(C)c2)c1
A. inactive

Q. Query: recorded result category for O=C1OC(=O)c2cc(Oc3ccc4c(c3)C(=O)OC4=O)ccc21 in this test
A. inactive

Q. Record request — test call for C=CCCCCCCCCC(=O)OCCCC
A. inactive

Q. Field: outcome | Entry: CC(=O)OC(C)C
A. inactive

Q. Lab log entry: N#[N+]c1ccc2c(S(=O)(=O)[O-])cccc2c1O — outcome as called in the assay?
A. inactive

Q. I'd appreciate the recorded outcome for C=C(C)C(=O)OCCOc1ccccc1 from this test.
A. inactive

Q. Would you mind telling me which call this test gave CC(C)c1ccc2cc(C(C)C)ccc2c1 ?
A. inactive

Q. For O=C1CCCCCCCCCCCCCCCO1 , what call appears in the results of this test?
A. inactive

Q. Recorded call for CC(CC=O)c1ccccc1 (stereo not given) ?
A. inactive

Q. Can you look up the reported call for C=C(C)[C@H]1CC=C(C)CC1 for me?
A. inactive

Q. # outcome recorded in this test, key = Nc1ccc(Cl)cc1Cl
A. inactive

Q. What did the test return for CCCCCCCCCCCSCC(=O)O ?
A. active

Q. Name the outcome recorded for CC(C)(C)c1ccc(N)cc1 in the assay.
A. inactive

Q. I would be grateful if you could indicate the recorded call for COc1ccc(C(Cl)=C(c2ccc(OC)cc2)c2ccc(OC)cc2)cc1 .
A. inactive
